- EXPERIMENTAL_TARGET: T1, C5 peptide 52-124 fused to GST-tag (human, UniProt P01031 52-124)
- T1 construct: not shown: GST-tag (glutathione S-transferase); vector and linker not restated
- T1 sequence (P01031 52-124): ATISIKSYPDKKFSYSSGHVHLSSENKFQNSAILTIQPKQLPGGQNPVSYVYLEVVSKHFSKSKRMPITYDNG
- TEST_PROTOCOL: summary drawing of the binding reactions to C5 beta-chain fragments
READOUT_TYPE: binding result

{"BINDER": "CFA0599 (antibody, V domains shown, Chimeric, rabbit V regions; also called CFA0599-F760G4) VH: QSVEESGGRLVTPGTPLTLTCTVSGLSLSDNTMTWVRQAPGKGLEWIGIISFGGDAYYASWAKGRFPISKTSTTVDLRITSPTTEDTATYFCARVGAGNIFWYFDLWGPGTLVTVSS VL: AYDMTQTPASVEVSVGGTVTIKCQASESIYSALAWYQQKPGQPPKLLIYSASTLASGVPSRFKGSGSGTEYTLTISDLECADAATYYCQQYYSSTNVHNSFGGGTTVVVE", "READING": "no binding"}
{"BINDER": "CFA0666 (antibody, V domains shown, Chimeric, rabbit V regions; also called CFA0666-F760G4) VH: QSVEESGGRLVTPGTPLTLTCTVSGFSLSTYAMGWVRQAPGKGLEWIGTIDTGDNSFYANWAKGRFTISKTSTTVDLKITSPTAEDTATYFCARNDGSVYNLFNLWGPGTLVTVSS VL: DVVMTQTPASVSAAVGGTVTIKCQASENIYSALSWYQQKPGLRPRLLIYYASTLASGVPSRFKGSRSGTEFTLTISDLECADAATYYCQQYYDINSVDNTFGGGTKVVVE", "READING": "no binding"}
{"BINDER": "CFA0366 (antibody, V domains shown, Chimeric, rabbit V regions; also called CFA0366-F760G4) VH: QSLEESGGDLVKPGASLSLTCTAAGLDFSSSYYMCWVRQAPGKGLEWIACIYAGSSGIIYYANWAKGRFTISRPSSTTVTLQMTSLTAADTATYFCATYPTYGDGGHAFNLWGPGTLVTVSS VL: AQVLTQTPSSVSAAVGGTVTINCQSSQSVYSSDYLSWYQQKPGQPPKLLIYEASKLASGVPPRFSGSGSGTQFTLTISGVQCDDAATYYCQGTYYSSGWYFAFGGGTEVVVK", "READING": "no binding"}
